- ASSAY NAME: Drug level in epithelial lining fluid of healthy human at 500 mg, iv administered as 2-h infusion every 8 h after 2.5 hrs
- CONDITION NOTES: read-out: Drug uptake
VALUE KIND: concentration at 2.5 h

concentration at 2.5 h measured on Nc1nc(/C(=N/O)C(=O)N[C@@H]2C(=O)N3C(C(=O)O)=C(/C=C4\CCN([C@@H]5CCNC5)C4=O)CS[C@H]23)ns1 = 2550 ng/mL

----------
- ASSAY NAME: AUC in plasma of healthy human at 500 mg, iv administered as 2-h infusion every 8 h
VALUE KIND: AUC (ng·h/mL)
Your answer is read as ng·h/mL, so omit the unit and give the number.

AUC measured on Nc1nc(/C(=N/O)C(=O)N[C@@H]2C(=O)N3C(C(=O)O)=C(/C=C4\CCN([C@@H]5CCNC5)C4=O)CS[C@H]23)ns1 = 98700
